Across several studies, compounds have been characterized by their IC50 on UniProt:P52333; a selection follows.

compound=CN(c1ncnc2[nH]ccc12)C1CC2(C1)CN(C(=O)c1ccc(C#N)cc1F)C2 reported_value="≥ 10000 nM"
compound="CC(C)(C)NC(=O)c1cc2nccn2c(-c2cnn(C(CC#N)C3CC3)c2)n1 (stereo not shown)" reported_value="> 1000 nM"
compound=N#CCC(=O)N1CCC[C@@H](Nc2c(-c3nnco3)cnc3[nH]ccc23)C1 reported_value="10 to 100 nM"

State, for UniProt:P52333, measured IC50 of the compound listed here: C=CC(=O)N1CCC[C@@H](n2nc(-c3ccc(Oc4ccccc4)cc3)c3cncc(C#N)c32)C1 > 500 nM
